target.of.assay: T1, SARS-COV-2 RBD (SARS-COV-2, UniProt P0DTC2 319-539)
T1 construct: also called WT RBD
procedure.summary: ELISA, RBD coated
experimental.readout: EC50 (ng/mL)
I only need the number, in ng/mL, no unit after it.

What value of measured EC50 is listed for C1021 (antibody, V domains shown, IgG; V domains only) VH: QVQLVQSGAELKKPGASVKVSCKASGYTFSTYYIHWVRQAPGQGLEWMGIINPEAGSTSYAQKFQGRVTMTTDTSTSTVYMELISLRSQDTAIYYCARDAVGVPAINSLEYWGQGTLVTVSS VL: EIVLTQSPATLSLSPGERATLSCRASQSISSYLAWYQQKPGQAPRLLIYDASNRATDISARFSGSGSGTDFTLTISSLEPEDFAVYYCQHRSNWPPSFTFGGGTKVEIK ? 2.53

Quick one: EC50 of C863 (antibody, V domains shown, IgG; V domains only) VH: EVQLLESGGGLVRPGGSLRLSCAASGFIFGSYAMTWVRQAPGKGLEWVSTISGGGTSTDYADSVKGHFTISRDNGKNTLYLQMNSLRAEDTAVYYCVKESDYYMASVNGMDVWGHGTTVTVSS VL: EIVLTQSPGTLSLSPGERATLSCRARQGVSSTYLAWYQQKPGQAPRLLIYGASSRATGIPDRFSGSGSGADFTLTISRLEPEDFAVYYCQQYGTSPYTFGQGTKLEIK ? 3.31

Data credit: patent US20240218057A1
